# assayComment: logD by shake flask method (octanol / PBS pH 7.4, HPLC)
# Format: physicochemical
# cond: octanol / PBS pH 7.4, shake flask
readout: logD

CNC(=O)C(=O)CC[C@H](NC(=O)c1nc2ccccc2[nH]1)C(=O)Nc1cccn(CC(=O)NC2C3CC4CC(C3)CC2C4)c1=O (stereo partly shown)	3 to 5
CNC(=O)C(=O)CC[C@H](NC(=O)c1oc2ccccc2c1C)C(=O)Nc1cccn(CC(=O)NC23CCC(CC2)C3)c1=O	1 to 3
CNC(=O)C(=O)CC[C@H](NC(=O)c1oc2ccccc2c1C)C(=O)Nc1cccn(CC23CC4CC(CC(Br)(C4)C2)C3)c1=O	3 to 5
CNC(=O)C(=O)CC[C@H](NC(=O)c1csnn1)C(=O)Nc1cccn(CC(=O)NC23CC(C2)C3)c1=O	< 1
CNC(=O)C(=O)CC[C@H](NC(=O)c1cccnc1)C(=O)Nc1cccn(CC(=O)NC2C3CC4CC(C3)CC2C4)c1=O (stereo partly shown)	1 to 3
CNC(=O)C(=O)CC[C@H](NC(=O)c1ccc2c(c1)CCCN2)C(=O)Nc1cccn(CC(=O)NC23CCC(C2)C3)c1=O	< 1
CNC(=O)C(=O)CC[C@H](NC(=O)[C@@H]1C[C@H](Br)CN1)C(=O)Nc1cccn(CC(=O)NC2C3CC4CC(C3)CC2C4)c1=O (stereo partly shown)	1 to 3

====

# assayComment: logD by shake flask method (octanol / PBS pH 7.4, HPLC)
# Assay type: physicochemical
# cond: octanol / PBS pH 7.4, shake flask
readout: logD

CNC(=O)C(=O)CC[C@H](NC(=O)c1csc2ccccc12)C(=O)Nc1cccn(CC(=O)NC2C3CC4CC(C3)CC2C4)c1=O (stereo partly drawn)	3 to 5
CNC(=O)C(=O)CC[C@H](NC(=O)c1oc2ccccc2c1C)C(=O)Nc1cccn(CC(=O)NC23CC(C2)C3)c1=O	< 1
CNC(=O)C(=O)CC[C@H](NC(=O)c1scc(C)c1Cl)C(=O)Nc1cccn(CC(=O)NC2C3CC4CC(C3)CC2C4)c1=O (stereo partly drawn)	1 to 3
CNC(=O)C(=O)CC[C@H](NC(=O)c1cncc(C(=O)O)c1)C(=O)Nc1cccn(CC(=O)NC2C3CC4CC(C3)CC2C4)c1=O (stereo partly drawn)	1 to 3
CNC(=O)C(=O)CC[C@H](NC(=O)c1cc2ccccc2o1)C(=O)Nc1cccn(CC(=O)NC(C)C23CC4CC(CC(C4)C2)C3)c1=O (stereo partly drawn)	3 to 5
CNC(=O)C(=O)CC[C@H](NC(=O)c1c[nH]cn1)C(=O)Nc1cccn(CC(=O)NC[C@@H]2CC[C@@H]3C[C@H]2C3(C)C)c1=O	1 to 3

====

# measuredTarget: recombinant human transglutaminase 2 (Homo sapiens, UniProt P21980)
# Construct: purchased Zedira T022
# Sequence (P21980 1-687): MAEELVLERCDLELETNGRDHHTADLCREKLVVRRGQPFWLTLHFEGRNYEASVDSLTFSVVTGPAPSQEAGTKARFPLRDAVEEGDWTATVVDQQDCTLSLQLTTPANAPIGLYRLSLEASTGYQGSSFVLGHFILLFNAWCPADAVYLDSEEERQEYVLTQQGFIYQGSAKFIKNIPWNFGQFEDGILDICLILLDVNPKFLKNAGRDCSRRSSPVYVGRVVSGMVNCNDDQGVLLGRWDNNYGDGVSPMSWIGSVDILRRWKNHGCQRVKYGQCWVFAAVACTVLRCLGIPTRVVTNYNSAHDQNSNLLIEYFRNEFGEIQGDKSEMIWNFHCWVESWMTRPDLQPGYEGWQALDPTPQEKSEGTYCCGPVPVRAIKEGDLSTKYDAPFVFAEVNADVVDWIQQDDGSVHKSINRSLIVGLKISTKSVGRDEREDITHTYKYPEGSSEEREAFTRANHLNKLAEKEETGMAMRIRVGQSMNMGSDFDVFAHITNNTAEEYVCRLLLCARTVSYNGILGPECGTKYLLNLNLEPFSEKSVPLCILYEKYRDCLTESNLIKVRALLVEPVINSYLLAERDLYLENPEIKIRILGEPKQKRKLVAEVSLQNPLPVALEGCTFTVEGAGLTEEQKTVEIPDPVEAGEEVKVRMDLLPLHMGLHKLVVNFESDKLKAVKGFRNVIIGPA
# assayComment: Transglutaminase assay (DCC-assay): incorporation of dansylcadaverine into dimethylcasein
# Format: biochemical
# cond: recombinant human TG2 10 nM; dansylcadaverine incorporation into dimethylcasein; read-out: IC50 TG2
IC50 listing for selected compounds.
readout: IC50

CNC(=O)C(=O)CC[C@H](NC(=O)c1oc2ccccc2c1C)C(=O)Nc1cccn(CC(=O)NCC23CC4CC(CC(C4)C2)C3)c1=O	40 to 400 nM
CNC(=O)C(=O)CC[C@H](NC(=O)c1ccc2c(c1)CC(=O)NC2)C(=O)Nc1cccn(CC(=O)NC2(C(=O)O)C3CC4CC2CC(C(F)(F)F)(C4)C3)c1=O (stereo partly drawn)	400 to 2500 nM
CCc1c(C(=O)N[C@@H](CCC(=O)C(=O)NC2CCCCC2)C(=O)Nc2cccn(CC(=O)NC34CC(C3)C4)c2=O)oc2ccccc12	40 to 400 nM

====

# measuredTarget: recombinant human transglutaminase 2 (Homo sapiens)
# Construct: purchased Zedira T022
# Sequence (P21980 1-687): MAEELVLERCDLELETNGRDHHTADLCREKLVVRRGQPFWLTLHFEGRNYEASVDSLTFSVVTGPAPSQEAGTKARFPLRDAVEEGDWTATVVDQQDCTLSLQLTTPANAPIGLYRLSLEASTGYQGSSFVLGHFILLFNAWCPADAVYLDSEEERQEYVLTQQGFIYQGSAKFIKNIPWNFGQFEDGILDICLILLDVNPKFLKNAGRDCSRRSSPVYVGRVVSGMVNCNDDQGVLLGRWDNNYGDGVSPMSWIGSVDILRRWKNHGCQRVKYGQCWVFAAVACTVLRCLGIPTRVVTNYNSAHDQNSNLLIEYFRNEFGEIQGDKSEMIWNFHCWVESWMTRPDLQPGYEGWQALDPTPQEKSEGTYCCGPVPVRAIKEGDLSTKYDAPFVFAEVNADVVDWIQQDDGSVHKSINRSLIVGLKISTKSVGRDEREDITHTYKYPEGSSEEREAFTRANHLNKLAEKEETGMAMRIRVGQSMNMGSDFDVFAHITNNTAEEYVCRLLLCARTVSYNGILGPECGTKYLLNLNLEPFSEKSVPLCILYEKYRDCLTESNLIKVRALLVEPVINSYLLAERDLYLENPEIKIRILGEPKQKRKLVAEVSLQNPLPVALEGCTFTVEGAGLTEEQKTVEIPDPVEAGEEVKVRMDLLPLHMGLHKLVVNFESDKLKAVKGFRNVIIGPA
# assayComment: Transglutaminase assay (DCC-assay): incorporation of dansylcadaverine into dimethylcasein
# Format: biochemical
# cond: recombinant human TG2 10 nM; dansylcadaverine incorporation into dimethylcasein; read-out: IC50 TG2
pIC50: −log10 of the molar value.
readout: pIC50

CNC(=O)C(=O)CC[C@H](NC(=O)c1cc(Br)cs1)C(=O)Nc1cccn(CC(=O)NC2C3CC4CC(C3)CC2C4)c1=O (stereo partly drawn)	> 7.40
CNC(=O)C(=O)CC[C@H](NC(=O)c1nc(C2(C)CC2)no1)C(=O)Nc1cccn(CC(=O)NC2C3CC4CC2CC(C(N)=O)(C4)C3)c1=O (stereo partly drawn)	5.60 to 6.40
Cc1c(C(=O)N[C@@H](CCC(=O)C(N)=O)C(=O)Nc2cccn(CC(=O)NC3C4CC5CC(C4)CC3C5)c2=O)oc2ccccc12 (stereo partly drawn)	> 7.40
CNC(=O)C(=O)CC[C@H](NC(=O)c1oc2ccccc2c1C)C(=O)Nc1cccn(CC(=O)NC2CC3CCC2CC3)c1=O (stereo partly drawn)	6.40 to 7.40
CNC(=O)C(=O)CC[C@H](NC(=O)[C@@H]1CCCN1C(C)=O)C(=O)Nc1cccn(CC(=O)NC2C3CC4CC(C3)CC2C4)c1=O (stereo partly drawn)	> 7.40
CNC(=O)C(=O)CC[C@H](NC(=O)c1nc(Br)cs1)C(=O)Nc1cccn(CC(=O)NC2C3CC4CC(C3)CC2C4)c1=O (stereo partly drawn)	6.40 to 7.40

====

# assayComment: Caco-2 permeability assay (CacoReady kit)
# Type: in vitro ADME
# cond: human, Caco-2, Caco-2 barrier, CacoReady kit; above 1×10^−6 cm/s classified as permeable
Reported Papp values for a set of compounds
readout: Papp

CNC(=O)C(=O)CC[C@H](NC(=O)[C@H]1COCCN1)C(=O)Nc1cccn(CC(=O)NC2C3CC4CC(C3)CC2C4)c1=O (stereo partly drawn)	< 1 ×10⁻⁶ cm/s
CNC(=O)C(=O)CC[C@H](NC(=O)c1cc(Cl)c(Cl)s1)C(=O)Nc1cccn(CC(=O)NC2C3CC4CC(C3)CC2C4)c1=O (stereo partly drawn)	1 to 10 ×10⁻⁶ cm/s
CNC(=O)C(=O)CC[C@H](NC(=O)C1CCc2ccccc2C1)C(=O)Nc1cccn(CC(=O)NC2C3CC4CC2CC(C(=O)N(C)C)(C4)C3)c1=O (stereo partly drawn)	< 1 ×10⁻⁶ cm/s
CNC(=O)C(=O)CC[C@H](NC(=O)c1cnc(NC(C)=O)s1)C(=O)Nc1cccn(CC(=O)NC23CC(C2)C3)c1=O	< 1 ×10⁻⁶ cm/s
CNC(=O)C(=O)CC[C@H](NC(=O)c1cccnc1)C(=O)Nc1cccn(CC(=O)NC2C3CC4CC(C3)CC2C4)c1=O (stereo partly drawn)	< 1 ×10⁻⁶ cm/s
CNC(=O)C(=O)CC[C@H](NC(=O)c1cnnn1C)C(=O)Nc1cccn(CC(=O)N[C@H]2C[C@H]3CC[C@]2(C)C3(C)C)c1=O	< 1 ×10⁻⁶ cm/s
